Assay text: Metabolic stability in mouse liver microsomes assessed as parent compound remaining at 0.5 uM incubated for 10 mins in presence of NADPH by LC-MS/MS analysis
Type: ADME, Microsome
Conditions used: read-out: Stability
# remaining at 10 min, 0.5 µM annotations
Write down the numeric answer in % and omit the unit.

Solved entries:
{"columns": ["Molecule", "remaining at 10 min, 0.5 µM (%)"],
 "data": [
  ["COc1cc(NC(=O)[C@@H](N)CC(C)C)ccc1-c1cnco1", 53],
  ["CCC[C@H](N)C(=O)Nc1ccc(-c2cnco2)c(OC)c1", 46],
  ["CC[C@@H](C)[C@@H](N)C(=O)Nc1ccc(-c2cnco2)c(OC)c1", 81]
]}

Alright, here's another molecule for you.
Give the value of remaining at 10 min, 0.5 µM reported for the following: CC(C)C1CCCNC1C(=O)Nc1ccc(-c2ccncc2)cc1 (racemic)
76
